Biological target: Bile acid receptor (Homo sapiens)
Sequence (Q96RI1 whole entry): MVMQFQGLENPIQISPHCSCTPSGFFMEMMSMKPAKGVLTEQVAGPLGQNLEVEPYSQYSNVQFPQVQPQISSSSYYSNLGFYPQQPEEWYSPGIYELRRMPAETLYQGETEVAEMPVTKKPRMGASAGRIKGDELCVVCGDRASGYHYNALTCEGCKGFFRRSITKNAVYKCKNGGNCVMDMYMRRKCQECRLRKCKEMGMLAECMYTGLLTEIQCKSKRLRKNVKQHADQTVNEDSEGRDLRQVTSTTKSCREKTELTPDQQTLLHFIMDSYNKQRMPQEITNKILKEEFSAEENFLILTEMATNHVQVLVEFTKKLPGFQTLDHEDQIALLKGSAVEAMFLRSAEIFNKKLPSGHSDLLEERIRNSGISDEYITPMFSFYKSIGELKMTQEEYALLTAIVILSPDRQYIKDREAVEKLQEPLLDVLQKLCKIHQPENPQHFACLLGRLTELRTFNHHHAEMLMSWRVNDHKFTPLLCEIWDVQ
Test: Agonist activity at FXR (unknown origin) measured after 16 hrs in presence of CCF4-AM dye by cell-based GeneBlazer FRET assay
Listed here: items and their measured EC50.
QUANTITY_KIND: EC50 (nM)

{"columns": ["COMPOUND_SMILES", "QUANTITY_KIND", "MEASUREMENT"],
 "data": [
  ["CC[C@H]1[C@@H](O)[C@@H]2[C@H](CC[C@]3(C)[C@@H]([C@H](C)CCNC(=O)O[C@@H]4CCOC4)CC[C@@H]23)[C@@]2(C)CC[C@@H](O)C[C@@H]12", "EC50", 80],
  ["CC[C@H]1[C@@H](O)[C@@H]2[C@H](CC[C@]3(C)[C@@H]([C@H](C)CCNC(=O)O[C@H]4CCOC4)CC[C@@H]23)[C@@]2(C)CC[C@@H](O)C[C@@H]12", "EC50", 80],
  ["CC[C@H]1[C@@H](O)[C@@H]2[C@H](CC[C@]3(C)[C@@H]([C@H](C)CCNC(=O)OCc4cccs4)CC[C@@H]23)[C@@]2(C)CC[C@@H](O)C[C@@H]12", "EC50", 110],
  ["CCOC(=O)NCC[C@@H](C)[C@H]1CC[C@H]2[C@@H]3[C@H](O)[C@H](CC)[C@@H]4C[C@H](O)CC[C@]4(C)[C@H]3CC[C@]12C", "EC50", 100]
]}

----------
Target: Bile acid receptor (Homo sapiens) (UniProt Q96RI1)
Sequence (whole entry): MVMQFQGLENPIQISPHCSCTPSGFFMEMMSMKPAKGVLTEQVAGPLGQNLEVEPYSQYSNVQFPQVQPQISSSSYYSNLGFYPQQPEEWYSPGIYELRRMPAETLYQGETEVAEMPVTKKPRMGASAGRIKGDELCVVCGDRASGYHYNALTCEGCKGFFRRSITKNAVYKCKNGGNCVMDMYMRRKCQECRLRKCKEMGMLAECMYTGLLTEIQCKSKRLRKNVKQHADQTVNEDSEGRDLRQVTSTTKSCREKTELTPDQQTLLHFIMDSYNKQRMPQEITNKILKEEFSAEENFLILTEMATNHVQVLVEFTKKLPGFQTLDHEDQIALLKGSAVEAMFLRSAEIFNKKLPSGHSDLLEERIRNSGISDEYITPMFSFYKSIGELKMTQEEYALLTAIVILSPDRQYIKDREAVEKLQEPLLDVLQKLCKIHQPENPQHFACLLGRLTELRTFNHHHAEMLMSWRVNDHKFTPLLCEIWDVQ
Experiment: Agonist activity at recombinant human GST-tagged FXR LBD (193 to 472 residues) expressed in baculovirus-infected insect cells assessed as recruitment of biotinylated SRC1 peptide measured after 1 hr by Alphascreen assay relative to CDCA
Recorded Efficacy by entry

{"columns": ["COMPOUND_SMILES", "Efficacy"],
 "data": [
  ["CC[C@H]1[C@@H](O)[C@@H]2[C@H](CC[C@]3(C)[C@@H]([C@H](C)CCNC(=O)O[C@@H]4CCOC4)CC[C@@H]23)[C@@]2(C)CC[C@@H](O)C[C@@H]12", "100%"],
  ["CC[C@H]1[C@@H](O)[C@@H]2[C@H](CC[C@]3(C)[C@@H]([C@H](C)CCNC(C)=O)CC[C@@H]23)[C@@]2(C)CC[C@@H](O)C[C@@H]12", "81%"],
  ["CC[C@H]1[C@@H](O)[C@@H]2[C@H](CC[C@]3(C)[C@@H]([C@H](C)CCNC(=O)NC4CC4)CC[C@@H]23)[C@@]2(C)CC[C@@H](O)C[C@@H]12", "104%"],
  ["CC[C@H]1[C@@H](O)[C@@H]2[C@H](CC[C@]3(C)[C@@H]([C@H](C)CCNS(=O)(=O)c4ccccc4)CC[C@@H]23)[C@@]2(C)CC[C@@H](O)C[C@@H]12", "117%"]
]}

----------
experiment: AUC in C57BL/6 mouse at 10 mg/kg, po administered via gavage; type: ADME, organism-based; details: in vivo
# Lookup of reported AUC keyed by entry

{"columns": ["COMPOUND", "AUC, µM·h"],
 "data": [
  ["CC[C@H]1[C@@H](O)[C@@H]2[C@H](CC[C@]3(C)[C@@H]([C@H](C)CCC(=O)NS(C)(=O)=O)CC[C@@H]23)[C@@]2(C)CC[C@@H](O)C[C@@H]12", 1.19],
  ["CC[C@H]1[C@@H](O)[C@@H]2[C@H](CC[C@]3(C)[C@@H]([C@H](C)CCC(=O)O)CC[C@@H]23)[C@@]2(C)CC[C@@H](O)C[C@@H]12 [OBETICHOLIC ACID]", 0.713]
]}

----------
test: Drug level in C57BL/6 mouse liver at 2 mg/kg, po administered as single cassette dose via gavage measured at 3 hrs post dose by LC-MS/MS analysis; format: ADME, organism-based; details: in vivo

{"columns": ["COMPOUND_SMILES", "Drug uptake (nmol/kg)"],
 "data": [
  ["CC[C@H]1[C@@H](O)[C@@H]2[C@H](CC[C@]3(C)[C@@H]([C@H](C)CCc4nnn[nH]4)CC[C@@H]23)[C@@]2(C)CC[C@@H](O)C[C@@H]12", 1443],
  ["CC[C@H]1[C@@H](O)[C@@H]2[C@H](CC[C@]3(C)[C@@H]([C@H](C)CCNC(=O)C(=O)O)CC[C@@H]23)[C@@]2(C)CC[C@@H](O)C[C@@H]12", 1363],
  ["CC[C@H]1[C@@H](O)[C@@H]2[C@H](CC[C@]3(C)[C@@H]([C@H](C)CCC(=O)NS(C)(=O)=O)CC[C@@H]23)[C@@]2(C)CC[C@@H](O)C[C@@H]12", 1361],
  ["CC[C@H]1[C@@H](O)[C@@H]2[C@H](CC[C@]3(C)[C@@H]([C@H](C)CCc4cc(O)no4)CC[C@@H]23)[C@@]2(C)CC[C@@H](O)C[C@@H]12", 257],
  ["CC[C@H]1[C@@H](O)[C@@H]2[C@H](CC[C@]3(C)[C@@H]([C@H](C)CCC(=O)O)CC[C@@H]23)[C@@]2(C)CC[C@@H](O)C[C@@H]12", 625]
]}

----------
assay: Cmax in C57BL/6 mouse at 10 mg/kg, po administered via gavage; type: ADME, organism-based; set-up: dose 10 mg/kg, route oral; details: in vivo
# Cmax listing for each entry below
QUANTITY_KIND: Cmax (nM)

{"columns": ["MOLECULE", "QUANTITY_KIND", "MEASUREMENT"],
 "data": [
  ["CC[C@H]1[C@@H](O)[C@@H]2[C@H](CC[C@]3(C)[C@@H]([C@H](C)CCC(=O)O)CC[C@@H]23)[C@@]2(C)CC[C@@H](O)C[C@@H]12 [OBETICHOLIC ACID]", "Cmax", 1540],
  ["CC[C@H]1[C@@H](O)[C@@H]2[C@H](CC[C@]3(C)[C@@H]([C@H](C)CCC(=O)NS(C)(=O)=O)CC[C@@H]23)[C@@]2(C)CC[C@@H](O)C[C@@H]12", "Cmax", 610]
]}

----------
target: Bile acid receptor (Homo sapiens); assay: Agonist activity at recombinant human GST-tagged FXR LBD (193 to 472 residues) expressed in baculovirus-infected insect cells assessed as recruitment of biotinylated SRC1 peptide measured after 1 hr by Alphascreen assay
Item-by-item account of EC50

{"columns": ["COMPOUND_SMILES", "EC50 / nM"],
 "data": [
  ["CC[C@H]1[C@@H](O)[C@@H]2[C@H](CC[C@]3(C)[C@@H]([C@H](C)CCNC(=O)O[C@H]4CCOC4)CC[C@@H]23)[C@@]2(C)CC[C@@H](O)C[C@@H]12", 90],
  ["CC[C@H]1[C@@H](O)[C@@H]2[C@H](CC[C@]3(C)[C@@H]([C@H](C)CCNC(=O)OCc4cccs4)CC[C@@H]23)[C@@]2(C)CC[C@@H](O)C[C@@H]12", 230],
  ["CC[C@H]1[C@@H](O)[C@@H]2[C@H](CC[C@]3(C)[C@@H]([C@H](C)CCNC(=O)OC(C)C)CC[C@@H]23)[C@@]2(C)CC[C@@H](O)C[C@@H]12", 300],
  ["CC[C@H]1[C@@H](O)[C@@H]2[C@H](CC[C@]3(C)[C@@H]([C@H](C)CCc4nnn[nH]4)CC[C@@H]23)[C@@]2(C)CC[C@@H](O)C[C@@H]12", 60],
  ["CC[C@H]1[C@@H](O)[C@@H]2[C@H](CC[C@]3(C)[C@@H]([C@H](C)CCC(=O)S)CC[C@@H]23)[C@@]2(C)CC[C@@H](O)C[C@@H]12", 240],
  ["CC[C@H]1[C@@H](O)[C@@H]2[C@H](CC[C@]3(C)[C@@H]([C@H](C)CCC(=O)NCC(=O)O)CC[C@@H]23)[C@@]2(C)CC[C@@H](O)C[C@@H]12", 290]
]}
